testParameters: in ethyl acetate, 290.65 K
endpoint: solubility (mole fraction)

Q. Quick check: solubility (mole fraction) of "Cc1cc([N+](=O)[O-])ccc1N" ?
A. 0.0897

----------
testParameters: in acetone, 300.65 K
endpoint: solubility (mole fraction)
Numbers only.

Q. Find the recorded solubility (mole fraction) belonging to "Cc1cc([N+](=O)[O-])ccc1N" and report it.
A. 0.135

----------
testParameters: in n-propanol, 295.65 K
endpoint: solubility (mole fraction)
One number for each entry.

Q. I would be grateful if you could share the reported solubility (mole fraction) for "Cc1cc([N+](=O)[O-])ccc1N" .
A. 0.0124

----------
testParameters: in acetonitrile, 293.15 K
endpoint: solubility (mole fraction)
Answers are plain numbers.

Q. Entry "Cc1cc([N+](=O)[O-])ccc1N" : reported solubility (mole fraction) = ?
A. 0.0491

----------
testParameters: in n-butanol, 283.15 K
endpoint: solubility (mole fraction)
Numbers only.

Q. For the compound shown here, "Cc1cc([N+](=O)[O-])ccc1N" , give the reported solubility (mole fraction).
A. 0.00618

----------
testParameters: in acetonitrile, 303.15 K
endpoint: solubility (mole fraction)
One number for each entry.

Q. Give the measured solubility (mole fraction) of "Cc1cc([N+](=O)[O-])ccc1N" .
A. 0.0651

----------
testParameters: in toluene, 313.15 K
endpoint: solubility (mole fraction)
Give bare numbers.

Q. Give the measured solubility (mole fraction) of "Cc1cc([N+](=O)[O-])ccc1N" .
A. 0.00714

----------
testParameters: in cyclohexane, 310.65 K
endpoint: solubility (mole fraction)

Q. Given the compound "Cc1cc([N+](=O)[O-])ccc1N" , what is its reported solubility (mole fraction)?
A. 0.000122

----------
testParameters: in n-propanol, 313.15 K
endpoint: solubility (mole fraction)

Q. Look up solubility (mole fraction) for this compound: "Cc1cc([N+](=O)[O-])ccc1N"
A. 0.0227

----------
testParameters: in acetonitrile, 288.15 K
endpoint: solubility (mole fraction)

Q. Requested read-out: solubility (mole fraction). Entry: "Cc1cc([N+](=O)[O-])ccc1N"
A. 0.0423

----------
testParameters: in isopropanol, 280.65 K
endpoint: solubility (mole fraction)
Numbers only.

Q. Which solubility (mole fraction) value belongs to "Cc1cc([N+](=O)[O-])ccc1N" ?
A. 0.00511

----------
testParameters: in 2-butanone, 300.65 K
endpoint: solubility (mole fraction)
Answers are plain numbers.

Q. Given the entry "Cc1cc([N+](=O)[O-])ccc1N" , report its measured solubility (mole fraction).
A. 0.141

----------
testParameters: in acetone, 283.15 K
endpoint: solubility (mole fraction)
Give bare numbers.

Q. Query (compound): "Cc1cc([N+](=O)[O-])ccc1N" ; field requested: solubility (mole fraction)
A. 0.0875

----------
testParameters: in cyclohexane, 283.15 K
endpoint: solubility (mole fraction)
Give bare numbers.

Q. Record request: solubility (mole fraction) value, item "Cc1cc([N+](=O)[O-])ccc1N"
A. 2.5e-05

----------
testParameters: in acetone, 278.15 K
endpoint: solubility (mole fraction)

Q. Any idea what solubility (mole fraction) was measured for "Cc1cc([N+](=O)[O-])ccc1N" ?
A. 0.0764

----------
testParameters: in n-propanol, 285.65 K
endpoint: solubility (mole fraction)
Give bare numbers.

Q. Can you look up the measured solubility (mole fraction) of "Cc1cc([N+](=O)[O-])ccc1N" for me?
A. 0.00853

Data origin, for the record: BigSolDB 2.1
